Assay: Peroxidase assay (TMB substrate)
Format: biochemical
Conditions: heme 5 µM, peptide 5 µM, absorption at 370 nm and 652 nm
Where no end group is shown, it is not given here.
PROPERTY NAME: peroxidase activity of heme and FeSO4 in the presence of peptide

TKPCQSDKDCKKFACRKPKVPKCINGFCKCVR (disulfide (positions not given here)) [NCR13_PFV2]    not reduced or stopped
RNGCIVDPRCPYQQCRRPLYCRRR [NCR247, reference compound]    reduced or stopped
TKPCQSDKDCKKFACRKPKVPKCINGFCKCVR (disulfide (positions not given here)) [NCR13_PFV1, chickpea nodule-specific cysteine-rich 32 amino acid peptide, disulfide cross-linking variant 1, expressed in Pichia pastoris]    not reduced or stopped
RNGCIVDARCPYQKCSYPLYCRRR [NCR455, reference compound]    reduced or stopped

====

Tested on: C. sojina QoI fungicide-resistant isolate Cs350
Format: cell-based, Cercospora sojina
Conditions: 48 h
Where a SMILES comes first, the peptide text is derived from it.
PROPERTY NAME: MIC (μM) against C. sojina, Fungicide resistant, Cs350 (µM)
Write the value in µM as a bare number.

Some molecules with known MIC (μM) against C. sojina, Fungicide resistant, Cs350 results, for comparison:
CC(C)[C@H](NC(=O)[C@H](CCCCN)NC(=O)[C@@H]1CCCN1C(=O)[C@H](CCCCN)NC(=O)[C@H](CCCNC(=N)N)NC(=O)[C@H](CS)NC(=O)[C@H](C)NC(=O)[C@H](Cc1ccccc1)NC(=O)[C@H](CCCCN)NC(=O)[C@@H](N)CCCCN)C(=O)N1CCC[C@H]1C(=O)N[C@@H](CCCCN)C(=O)N[C@@H](CS)C(=O)O [NCR13_V7] (H-KKFACRKPKVPKC-OH; N-terminus and C-terminus assumed)    12
CC[C@H](C)[C@H](NC(=O)[C@H](CCCNC(=N)N)NC(=O)[C@@H](NC(=O)[C@H](Cc1c[nH]c2ccccc12)NC(=O)[C@H](Cc1ccc(O)cc1)NC(=O)[C@H](Cc1c[nH]c2ccccc12)NC(=O)[C@H](CCCNC(=N)N)NC(=O)[C@H](CCCNC(=N)N)NC(=O)[C@H](CC(C)C)NC(=O)[C@H](Cc1ccccc1)NC(=O)CNC(=O)[C@H](CCCCN)NC(=O)[C@H](CS)NC(=O)[C@H](CCCNC(=N)N)NC(=O)CNC(=O)CN)[C@@H](C)O)C(=O)N[C@@H](CS)C(=O)O [GMA4CG_V8] (H-GGRCKGFLRRWYWTRIC-OH)    6
CC[C@H](C)[C@H](NC(=O)[C@H](CCCNC(=N)N)NC(=O)[C@@H](NC(=O)[C@H](Cc1ccccc1)NC(=O)[C@H](Cc1c[nH]c2ccccc12)NC(=O)[C@H](Cc1ccccc1)NC(=O)[C@H](CCCNC(=N)N)NC(=O)[C@H](CCCNC(=N)N)NC(=O)[C@H](CC(C)C)NC(=O)[C@H](Cc1ccccc1)NC(=O)CNC(=O)[C@H](CCCCN)NC(=O)[C@H](CS)NC(=O)[C@H](CCCNC(=N)N)NC(=O)CNC(=O)CN)[C@@H](C)O)C(=O)N[C@@H](CS)C(=O)O [GMA4CG_V7] (H-GGRCKGFLRRFWFTRIC-OH)    6

Challenge: Note down MIC (μM) against C. sojina, Fungicide resistant, Cs350 recorded for CC[C@H](C)[C@H](NC(=O)[C@H](CCCNC(=N)N)NC(=O)[C@H](CS)NC(=O)[C@H](CCCNC(=N)N)NC(=O)CNC(=O)[C@@H](N)CO)C(=O)N[C@@H](CC(C)C)C(=O)N[C@@H](Cc1ccccc1)C(=O)N[C@@H](CCCNC(=N)N)C(=O)N[C@@H](Cc1c[nH]c2ccccc12)C(=O)N[C@@H](Cc1ccccc1)C(=O)N[C@@H](Cc1c[nH]c2ccccc12)C(=O)N[C@H](C(=O)N[C@@H](CCCCN)C(=O)N[C@@H](CC(N)=O)C(=O)N[C@@H](CS)C(=O)O)[C@@H](C)O [GMA1C_V2] (H-SGRCRILFRWFWTKNC-OH)
Response given: 6
